Consider compounds characterized by their Ki with SYK kinase (Homo sapiens, UniProt P43405).

Consider the following illustrative entries.
| compound | Ki |
| --- | --- |
| Fc1ccc(-c2nc(Nc3ccc(N4CCOCC4)cc3)c3[nH]ncc3n2)cc1F [Example #273] | 0.01 to 0.1 µM |
| c1cc(-c2nc(Nc3ccc4c(c3)NCCO4)c3[nH]ncc3n2)cs1 [Example #84] | < 0.01 µM |
| CS(=O)(=O)c1cccc(Nc2nc(-c3cccc(S(C)(=O)=O)c3)nc3cn[nH]c23)c1 [Example #253] | 0.01 to 0.1 µM |
| COc1ccccc1-c1nc(Nc2ccc3c(c2)NCCO3)c2[nH]ncc2n1 [Example #110] | 0.01 to 0.1 µM |
| COc1ccc(Nc2nc(-c3ccncc3)nc3cn[nH]c23)cc1OC [Example #18] | 0.01 to 0.1 µM |
| CN(C)S(=O)(=O)c1cccc(Nc2nc(-c3cccs3)nc3cn[nH]c23)c1 [Example #264] | 0.1 to 1 µM |
| O=C1CSc2ccc(Nc3nc(-c4cccs4)nc4cn[nH]c34)cc2N1 [Example #165] | 0.01 to 0.1 µM |
| NS(=O)(=O)c1cccc(-c2nc(Nc3ccc(N4CCOCC4)cc3)c3[nH]ncc3n2)c1 [Example #239] | < 0.01 µM |
| COc1ccccc1-c1nc(Nc2ccc(N3CCOCC3)cc2)c2[nH]ncc2n1 [Example #112] | 0.01 to 0.1 µM |
| COc1ccc(Nc2nc(-c3ccc(F)cc3F)nc3cn[nH]c23)cc1OC [Example #285] | < 0.01 µM |

Report Ki for CC1(C)CNc2cc(Nc3nc(-c4ccsc4)nc4cn[nH]c34)ccc2S1 [Example #148] tested on SYK kinase (Homo sapiens, UniProt P43405).
0.1 to 1 µM

Report Ki for c1cc(Nc2nc(-c3cc[nH]n3)nc3cn[nH]c23)n[nH]1 [Example #45] tested on SYK kinase (Homo sapiens, UniProt P43405).
0.1 to 1 µM

Report Ki for COc1ccc(Nc2nc(-c3ccc(F)cc3)nc3cn[nH]c23)cc1OC [Example #270] tested on SYK kinase (Homo sapiens, UniProt P43405).
0.01 to 0.1 µM

Report Ki for COc1ccc(-c2nc(Nc3ccc(N4CCOCC4)cc3)c3[nH]ncc3n2)cc1 [Example #59] tested on SYK kinase (Homo sapiens, UniProt P43405).
< 0.01 µM

----------
Consider compounds characterized by their Ki with SYK kinase (Homo sapiens).

Consider the following illustrative entries.
| test smiles | tested system | test result |
| --- | --- | --- |
| COC(=O)c1cccc(-c2nc(Nc3ccc4c(c3)NC(=O)CS4)c3[nH]ncc3n2)c1 | SYK kinase (Homo sapiens) | 0.01 to 0.1 µM |
| CN1CCN(C2CCN(c3ccc(Nc4nc(-c5cccs5)nc5cn[nH]c45)cc3)CC2)CC1 | SYK kinase (Homo sapiens) | < 0.01 µM |
| COc1ccc(Nc2nc(-c3cccc(S(F)(F)(F)(F)F)c3)nc3cn[nH]c23)cc1OC | SYK kinase (Homo sapiens) | 0.1 to 1 µM |
| COc1ccc(Nc2nc(-c3nc4ccccc4s3)nc3cn[nH]c23)cc1OC | SYK kinase (Homo sapiens) | 0.01 to 0.1 µM |

Report Ki for COc1cccc(-c2nc(Nc3ccc(CN4CCN(C)CC4)cc3)c3[nH]ncc3n2)c1 tested on SYK kinase (Homo sapiens).
< 0.01 µM

Report Ki for O=C1COc2ccc(-c3nc(Nc4ccc(N5CCOCC5)cc4)c4[nH]ncc4n3)cc2N1 tested on SYK kinase (Homo sapiens).
0.01 to 0.1 µM

Report Ki for c1cncc(-c2cccc(-c3nc(Nc4ccc5cn[nH]c5c4)c4[nH]ncc4n3)c2)c1 tested on SYK kinase (Homo sapiens).
0.01 to 0.1 µM

Report Ki for CN1CCC(c2nc(Nc3ccc(Cl)cc3)c3[nH]ncc3n2)CC1 tested on SYK kinase (Homo sapiens).
0.01 to 0.1 µM

Report Ki for c1ccc(-c2nc(Nc3ccc4[nH]ncc4c3)c3[nH]ncc3n2)cc1 tested on SYK kinase (Homo sapiens).
< 0.01 µM

Report Ki for NS(=O)(=O)c1cccc(-c2nc(Nc3ccc4c(c3)NC(=O)CC4)c3[nH]ncc3n2)c1 tested on SYK kinase (Homo sapiens).
< 0.01 µM
